test system: PA-1; test: Primary qHTS to identify gynecologic anti-cancer compounds using libraries of approved drugs and bioactive compounds (AID 1345084); conditions: Gynecologic cancer cell panel viability, ATPlite luminescence, 48 h; series mostly up to 57.5 µM; also: nearly all actives have a fitted effect of over 55% in size
Results filed as inconclusive are left out. The source made the active and inactive calls. Calls follow the shape of the dose curve; as a rule, active = well fitted cell-killing curve with a large enough effect; inconclusive = small, poorly fitted or top-dose-only effect, or effect the other way; inactive = flat fitted curve, though single readings scatter.
Outcome codes: TRUE for active, FALSE for inactive

# MOLECULE, SYSTEM NAME, DISCRETE LABEL
measured = [
    ("O=C(O)CC1CC(c2ccccc2)=NO1 (configuration not stated)", "PA-1", "FALSE"),
    ("CN(CCCOc1ccc(Cc2ccccc2)cc1)CCC(=O)O", "PA-1", "FALSE"),
    ("CN1[C@@H]2CC[C@H]1CC(OC(c1ccccc1)c1ccccc1)C2 (some centres not stated)", "PA-1", "FALSE"),
    ("CCCCCCCCCCCCCCCC(=O)OC(C)C", "PA-1", "FALSE"),
    ("CCCCN(CC)c1nc(C)nc2c1c(C)cn2-c1c(C)cc(C)cc1C", "PA-1", "FALSE"),
    ("Nc1ccc(C(=O)O)c(O)c1", "PA-1", "FALSE"),
    ("Cc1ccc2c(n1)Oc1ccc(C(C)C(=O)OCC(=O)N(C)C)cc1C2 (configuration not stated)", "PA-1", "FALSE"),
    ("CCCCCCCCCCCCCCCCCC(=O)O", "PA-1", "FALSE"),
    ("CC(=O)O[C@H]1C[C@@]2(C)[C@@H](C[C@@H](O)[C@H]3[C@@]4(C)CC[C@@H](O)[C@@H](C)[C@@H]4CC[C@@]32C)/C1=C(\\CCC=C(C)C)C(=O)O", "PA-1", "FALSE"),
    ("COc1ccc(/C=C/C(=O)Nc2ccccc2C(=O)O)cc1OC", "PA-1", "FALSE"),
    ("c1ccc2sc(SSc3nc4ccccc4s3)nc2c1", "PA-1", "FALSE"),
    ("CC1(C)S[C@@H]2[C@H](NC(=O)[C@H](N)c3ccc(O)cc3)C(=O)N2[C@H]1C(=O)O", "PA-1", "FALSE"),
    ("COc1ccc(-c2cc(=S)ss2)cc1", "PA-1", "FALSE"),
    ("Nc1cc(-c2ccncc2)c[nH]c1=O", "PA-1", "FALSE"),
    ("O=C(CCN1CCN(CCO)CC1)N1c2ccccc2Sc2ccc(C(F)(F)F)cc21", "PA-1", "FALSE"),
    ("Fc1ccc2[nH]c(CN3CCN(c4ccccn4)CC3)cc2c1", "PA-1", "FALSE"),
    ("O=C(O)c1ccccc1Nc1cccc(C(F)(F)F)c1", "PA-1", "FALSE"),
    ("CNC(=O)c1c(I)c(NC(=O)CCCCC(=O)Nc2c(I)c(C(=O)O)c(I)c(C(=O)NC)c2I)c(I)c(C(=O)O)c1I", "PA-1", "FALSE"),
    ("O=C(Nc1ccc2[nH]ncc2c1)C1CCC1", "PA-1", "FALSE"),
    ("CC(C(=O)O)c1ccc2c(c1)[nH]c1ccc(Cl)cc12 (configuration not stated)", "PA-1", "FALSE"),
    ("COc1cccc2c1C(=O)c1c(O)c3c(c(O)c1C2=O)C[C@@](O)(C(=O)CO)C[C@@H]3O[C@H]1C[C@H](N)[C@H](O[C@@H]2CCCCO2)[C@H](C)O1", "PA-1", "TRUE"),
    ("COC(=O)C1=C(C)NC(C)=C(C(=O)OCC(C)C)C1c1ccccc1[N+](=O)[O-] (configuration not stated)", "PA-1", "FALSE"),
    ("CC(C)OC(=O)c1cc(C(=O)OC(C)C)cc([N+](=O)[O-])c1", "PA-1", "FALSE"),
    ("COC(=O)[C@H]1[C@H]2C[C@@H]3c4[nH]c5cc(OC)ccc5c4CCN3C[C@H]2C[C@@H](OC(=O)/C=C/c2cc(OC)c(OC)c(OC)c2)[C@@H]1OC", "PA-1", "FALSE"),
    ("COc1cc(NC(C)CCCN)c2ncccc2c1 (configuration not stated)", "PA-1", "FALSE"),
    ("O=C(Nc1ccc2c(c1)CCN(Cc1ncn[nH]1)C2)c1ccccc1-c1ccc(C(F)(F)F)cc1", "PA-1", "FALSE"),
    ("CN(C)c1ccc(C(=C2C=CC(=[N+](C)C)C=C2)c2ccccc2)cc1", "PA-1", "TRUE"),
]
